I'd be grateful if you could share measured Avg % Edit for these entries.
# System: TTR
# Test Details: TTR editing in primary human hepatocytes transfected with Spy Cas9 protein (RNP) loaded with dgRNAs (Table 8)
# Format: cell-based
# Assay Setup: dgRNA transfected with Spy Cas9 protein (RNP)
Answer in %, number only, no unit symbol.

The sequence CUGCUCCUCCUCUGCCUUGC (tested as dual guide RNA, chemistry not given here) [CR003335] on TTR: Avg % Edit was 51.14

The sequence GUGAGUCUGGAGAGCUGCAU (tested as dual guide RNA, chemistry not given here) [CR003360] on TTR: Avg % Edit was 31.47

Summary: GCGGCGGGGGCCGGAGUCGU (tested as dual guide RNA, chemistry not given here) [CR003374] , TTR, Avg % Edit = 2.65

GET /values?item= AAAUCUUACUGGAAGGCACU (tested as dual guide RNA, chemistry not given here) [CR005306] &system= TTR returns Avg % Edit: 18.81

// assay TTR, entry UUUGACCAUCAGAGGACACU (tested as dual guide RNA, chemistry not given here) [CR003344] , Avg % Edit value = 35.45

Here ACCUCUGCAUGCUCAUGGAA (tested as dual guide RNA, chemistry not given here) [CR003371] was tested on TTR, and its Avg % Edit came to 18.80

Let me check: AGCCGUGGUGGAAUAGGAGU (tested as dual guide RNA, chemistry not given here) [CR005299] , system TTR, measured Avg % Edit is 19.37

Record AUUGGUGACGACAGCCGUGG (tested as dual guide RNA, chemistry not given here) [CR003389] has TTR Avg % Edit equal to 19.87

Value sought: Avg % Edit, system TTR, item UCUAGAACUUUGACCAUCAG (tested as dual guide RNA, chemistry not given here) [CR003345] . Result: 28.90

Entry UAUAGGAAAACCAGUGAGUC (tested as dual guide RNA, chemistry not given here) [CR005305] ; assay system TTR; Avg % Edit recorded at 7.07

Entry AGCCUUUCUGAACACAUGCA (tested as dual guide RNA, chemistry not given here) [CR003351] under TTR had Avg % Edit of 40.28

Short answer on TTR for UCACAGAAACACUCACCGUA (tested as dual guide RNA, chemistry not given here) [CR005300] , Avg % Edit: 57.23

Query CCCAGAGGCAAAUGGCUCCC (tested as dual guide RNA, chemistry not given here) [CR003355] on TTR; Avg % Edit returned: 19.11

Given the sequence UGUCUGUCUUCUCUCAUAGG (tested as dual guide RNA, chemistry not given here) [CR005307] and test system TTR, the measured Avg % Edit is 18.73
